assay: viability profiling in MM1S myeloma cells – cell-based, resazurin fluorescence, basal, 24 h, PK04 Diversity Set, profiling panel (AID 1174); conditions: higher = more signal, called active from +8 up or from −8 down;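 also: MM1S multiple myeloma cell line; test concentration not given here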
Would you mind telling me the reported z-score of each entry?
One number for each entry.

COMPOUND	REPORTED ENDPOINT	OBSERVED VALUE
CC(C)=C1C(=O)C(c2ccccc2)=C2CN3C(=O)N(CCc4ccccc4)C(=O)[C@]3(Cc3ccc(C(F)(F)F)cc3)[C@H]21	z-score	-1.32

Respectfully, I request z-score for each entry included below.
1. [N-]=[N+]=Nc1ccccc1C[C@]1(C(=O)NCC(O)CO)COC(c2ccc(OCCCO)cc2)=N1 (some centres undefined)
2. Cc1ccc(S[C@]2(C(=O)NCC(F)(F)F)CC(=O)N(Cc3cc(C(F)(F)F)cc(C(F)(F)F)c3)[C@@H]2c2ccc(CO)cc2I)cc1
3. CCCC[C@@H](O)C1=C(COC)C[C@H]2C(=O)N(C)C(=O)[C@H]2[C@H]1CO

1. 0.303
2. -1.99
3. -0.264

###

target: Calmodulin-1 (Homo sapiens); experiment: small molecules binding calmodulin-1 with EGTA – biochemical, small-molecule microarray, Cy5-labelled CALM1, profiling panel (AID 1111); conditions: Cy5-CALM1 binding fluorescence, higher = more signal;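 also: labelled calmodulin applied in Tris saline Tween buffer holding calcium plus EGTA and DTT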
REPORTED ENDPOINT: composite z-score
Numbers only.

Worked cases, answers included:
MOLECULE	composite z-score
[N-]=[N+]=Nc1ccccc1C[C@]1(C(=O)NCCN2CCOCC2)COC(c2ccc(OCCCO)cc2)=N1	0.76
Cc1ccc(C(C)CC(O)C2C=CC3C(=O)N(c4ccccc4)C(=O)C3N2Nc2ccccc2)o1 (stereo not drawn)	1.3
C=C[C@@H](CO)N(Cc1ccc(OC)cc1)S(=O)(=O)c1ccc(Br)cc1	-0.0366
CCOC(=O)C[C@H]1[C@H](OC(=O)Cc2ccc3c(c2)OCO3)[C@@H](NC(=O)c2ccc3ccccc3n2)c2cc(OCCCO)ccc2N1C(=O)c1ccccc1	0.179

Respectfully, I request composite z-score for each entry included below.
1. CCOC(=O)C1=CC[C@@H](c2ccccc2F)N(S(=O)(=O)c2ccc(C)cc2)[C@H]1c1ccccc1
2. CCCCC=C[C@@H](NC(=O)OCc1ccccc1Cl)c1ccccc1
3. [N-]=[N+]=Nc1ccccc1[C@@H]1OC(c2ccc(OCCCO)cc2)=N[C@]1(Cc1ccccc1)C(=O)N1CCCCC1
4. [N-]=[N+]=Nc1ccccc1C[C@@]1(C(=O)NCCN2CCOCC2)N=C(c2ccc(OCCCO)cc2)O[C@@H]1c1ccccc1N=[N+]=[N-]

[0.509, 1.35, 1.43, 1.94]

###

assay: small molecules captured by biotinylated probe aFSTL3 – biochemical, small-molecule microarray, fluorescence 635/667, stem cell growth factor project, primary screen (AID 1064); conditions: higher = more signal;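 also: measures binding of the biotinylated anti-FSTL3 antibody to printed compounds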
Entry flag: yes (1) if composite z-score reaches 0.3; no (0) if it does not.

Here are 4 compounds together with their reported answers.
COMPOUND	DISCRETE LABEL
CN(C)C(=O)[C@@]1(Cc2ccccc2CN=[N+]=[N-])N=C(c2ccc(OCCCO)cc2)O[C@H]1c1ccccc1N=[N+]=[N-]	yes (1)
C=CC[C@@]1(C(=O)NCCCOC)N=C(c2ccc(OCCCO)cc2)O[C@@H]1c1ccccc1N=[N+]=[N-]	no (0)
CC(=O)NCCCC[C@@H]1NC(=O)[C@@H]2C[C@H](C(=O)NCCCCCN)[C@H](c3ccc(O)cc3)N2C1=O	yes (1)
[N-]=[N+]=NCc1ccccc1[C@@H]1OC(c2ccc(OCCCO)cc2)=N[C@]1(CCS(=O)(=O)c1ccccc1)C(=O)O	yes (1)

Is composite z-score for `CCCNC(=O)[C@@H]1c2ccccc2C(=O)N(Cc2ccc(OC(F)(F)F)cc2)[C@H]1c1ccc(CO)cc1` at or above 0.3? no (0)
